# Experiment Notes: Oral bioavailability in mice
# Format: ADME, organism-based
# Setup Conditions: mouse, in vivo
Measured Parameter: bioavailability (%)

Nc1c(-c2nc3ccc(N4CCOCC4)nc3[nH]2)c(=O)[nH]c2ccccc12 :: 84
Nc1c(-c2nc3cc(N4CCOCC4)ccc3[nH]2)c(=O)[nH]c2ccccc12 :: 100
Nc1c(-c2nc3cc(N4CCOCC4)ccc3[nH]2)c(O)nc2cnccc12 :: 87

====

# Experiment Notes: Clearance in mice
# Assay type: ADME, organism-based
# Setup Conditions: mouse, in vivo
Measured Parameter: clearance (mL/min/kg)

Nc1c(-c2nc3ccc(N4CCOCC4)nc3[nH]2)c(=O)[nH]c2ccccc12 :: 61

I. Nc1c(-c2nc3cc(N4CCOCC4)ccc3[nH]2)c(=O)[nH]c2ccccc12
II. Nc1c(-c2nc3cc(N4CCOCC4)ccc3[nH]2)c(O)nc2cnccc12
Query block: Lab notebook, comparison: I versus II , higher clearance goes to which? Output the label that corresponds to your choice.
Result block: II

====

# Target Desc: Platelet-derived growth factor receptor beta (Mus musculus)
Measured Parameter: IC50 (nM)

Nc1c2cnnc-2[nH]c(O)c1-c1nc2ccccc2[nH]1 :: 326
Nc1c2ncnc-2[nH]c(O)c1-c1nc2ccccc2[nH]1 :: 154
O=c1[nH]c2ccccc2c(O)c1-c1nc2ccccc2[nH]1 :: 395
Oc1nc2ncccc2c(O)c1-c1nc2ccccc2[nH]1 :: 6530

P. CN1CCN(c2ccc3[nH]c(-c4c(N)c5ccccc5[nH]c4=O)nc3c2)CC1
Q. Oc1nc2cnccc2c(O)c1-c1nc2ccccc2[nH]1
Query block: Smaller IC50 value, P vs Q ? Output the label that corresponds to your choice.
Result block: P
(P: 27 nM, Q: 1590 nM)

====

A short record of IC50 observed with Fibroblast growth factor receptor 1 (Homo sapiens, UniProt P11362) follows.
Sequence (P11362 whole entry): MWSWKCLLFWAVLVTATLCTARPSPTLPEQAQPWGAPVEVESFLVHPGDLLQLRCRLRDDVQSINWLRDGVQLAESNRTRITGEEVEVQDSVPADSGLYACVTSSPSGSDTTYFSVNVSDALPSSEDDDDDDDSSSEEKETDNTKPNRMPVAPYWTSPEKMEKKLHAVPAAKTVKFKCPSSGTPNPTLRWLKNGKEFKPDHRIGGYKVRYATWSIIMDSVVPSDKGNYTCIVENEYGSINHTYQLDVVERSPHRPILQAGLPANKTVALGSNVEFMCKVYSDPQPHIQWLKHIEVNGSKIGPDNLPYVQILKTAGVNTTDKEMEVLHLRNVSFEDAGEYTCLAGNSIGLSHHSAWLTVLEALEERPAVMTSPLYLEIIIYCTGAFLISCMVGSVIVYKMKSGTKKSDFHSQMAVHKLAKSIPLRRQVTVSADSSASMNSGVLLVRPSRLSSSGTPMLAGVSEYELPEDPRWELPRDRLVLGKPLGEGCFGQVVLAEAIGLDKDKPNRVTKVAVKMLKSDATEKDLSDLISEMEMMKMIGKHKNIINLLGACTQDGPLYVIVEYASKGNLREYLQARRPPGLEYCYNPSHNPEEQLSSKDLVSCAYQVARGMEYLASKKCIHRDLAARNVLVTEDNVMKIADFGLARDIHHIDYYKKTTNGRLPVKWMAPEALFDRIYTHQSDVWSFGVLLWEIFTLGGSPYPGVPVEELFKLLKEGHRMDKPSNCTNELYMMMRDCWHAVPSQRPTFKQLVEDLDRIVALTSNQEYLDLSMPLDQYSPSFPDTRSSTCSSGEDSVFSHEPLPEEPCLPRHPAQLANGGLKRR
Measured Parameter: IC50 (nM)

Sample answers from the record:
Nc1c(-c2nc3cc(N4CCOCC4)ccc3[nH]2)c(O)nc2ccncc12 :: 100
Nc1c(-c2nc3ccccc3[nH]2)c(O)nc2cnccc12 :: 10
Nc1c(-c2nc3cc(N4CCOCC4)ccc3[nH]2)c(O)nc2cnccc12 :: 10
Nc1c(-c2nc3cccnc3[nH]2)c(=O)[nH]c2cnccc12 :: 30

P. CN1CCN(c2ccc3[nH]c(-c4c(N)c5ccccc5[nH]c4=O)nc3c2)CC1
Q. Nc1c(-c2nc3ccc(N4CCOCC4)nc3[nH]2)c(=O)[nH]c2ccccc12
Query block: Lab notebook, comparison: P versus Q , higher IC50 goes to which? Output the label that corresponds to your choice.
Result block: Q
(Q: 47 nM, P: 8 nM)

====

pIC50: −log10 of the molar value.
A short record of pIC50 observed with Fibroblast growth factor receptor 1 (Homo sapiens) follows.
Measured Parameter: pIC50

Sample answers from the record:
CN1CCN(c2ccc3[nH]c(-c4c(O)nc5cnccc5c4N)nc3c2)CC1 :: 8.40
Nc1c(-c2nc3cccnc3[nH]2)c(=O)[nH]c2ccccc12 :: 7.29
CN1CCN(c2ccc3[nH]c(-c4c(O)nc5cccnc5c4N)nc3c2)CC1 :: 7.37

a. Nc1c2cnnc-2[nH]c(O)c1-c1nc2ccccc2[nH]1
b. Nc1c(-c2nc3cc(N4CCOCC4)ccc3[nH]2)c(=O)[nH]c2ccccc12
Query block: Smaller pIC50 value, a vs b ? Output the label that corresponds to your choice.
Result block: a

====

# pIC50 listing for each entry below
# Target Desc: Platelet-derived growth factor receptor beta (Mus musculus, UniProt P05622)
# Sequence (P05622 whole entry): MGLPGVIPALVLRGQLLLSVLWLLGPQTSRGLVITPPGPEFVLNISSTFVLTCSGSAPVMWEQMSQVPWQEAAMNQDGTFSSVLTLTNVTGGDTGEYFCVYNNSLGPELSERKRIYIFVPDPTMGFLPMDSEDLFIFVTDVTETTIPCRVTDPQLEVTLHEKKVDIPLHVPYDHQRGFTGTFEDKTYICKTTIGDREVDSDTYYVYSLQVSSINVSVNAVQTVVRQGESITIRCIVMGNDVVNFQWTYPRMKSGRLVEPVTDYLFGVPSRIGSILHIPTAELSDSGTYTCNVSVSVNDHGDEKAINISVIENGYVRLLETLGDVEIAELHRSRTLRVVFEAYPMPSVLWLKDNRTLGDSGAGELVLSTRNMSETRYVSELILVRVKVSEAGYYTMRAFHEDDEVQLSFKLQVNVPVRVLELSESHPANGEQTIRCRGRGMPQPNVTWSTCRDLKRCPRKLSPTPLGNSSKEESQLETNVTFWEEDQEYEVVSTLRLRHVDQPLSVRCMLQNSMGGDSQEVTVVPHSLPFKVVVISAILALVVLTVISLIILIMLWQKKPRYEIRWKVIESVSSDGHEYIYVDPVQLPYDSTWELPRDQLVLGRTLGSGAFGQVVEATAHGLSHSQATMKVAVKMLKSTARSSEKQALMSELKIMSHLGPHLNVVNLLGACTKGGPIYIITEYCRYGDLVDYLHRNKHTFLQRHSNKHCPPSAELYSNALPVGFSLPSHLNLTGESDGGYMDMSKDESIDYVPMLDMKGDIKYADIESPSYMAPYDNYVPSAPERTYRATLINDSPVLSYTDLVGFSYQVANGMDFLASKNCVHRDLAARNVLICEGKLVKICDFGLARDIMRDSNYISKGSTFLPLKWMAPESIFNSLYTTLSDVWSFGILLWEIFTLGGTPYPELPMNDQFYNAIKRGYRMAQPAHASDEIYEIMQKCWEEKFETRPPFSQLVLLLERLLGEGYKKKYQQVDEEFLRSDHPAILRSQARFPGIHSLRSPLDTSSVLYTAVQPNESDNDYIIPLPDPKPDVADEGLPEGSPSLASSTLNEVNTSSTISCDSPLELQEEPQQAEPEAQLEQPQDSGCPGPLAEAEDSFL
Reminder that pIC50 is minus the log10 of a molar concentration.

Query block: Look at this compound and give its reported pIC50. Nc1c(-c2nc3cccnc3[nH]2)c(=O)[nH]c2cnccc12
Result block: 7.31

Query block: Look at this compound and give its reported pIC50. Nc1c(-c2nc3cccnc3[nH]2)c(=O)[nH]c2ccccc12
Result block: 7.60

Query block: Look at this compound and give its reported pIC50. Nc1c(-c2nc3cc(N4CCOCC4)ccc3[nH]2)c(O)nc2cnccc12
Result block: 7.19

====

A short record of IC50 observed with Vascular endothelial growth factor receptor 2 (Mus musculus) follows.
Sequence (P35918 whole entry): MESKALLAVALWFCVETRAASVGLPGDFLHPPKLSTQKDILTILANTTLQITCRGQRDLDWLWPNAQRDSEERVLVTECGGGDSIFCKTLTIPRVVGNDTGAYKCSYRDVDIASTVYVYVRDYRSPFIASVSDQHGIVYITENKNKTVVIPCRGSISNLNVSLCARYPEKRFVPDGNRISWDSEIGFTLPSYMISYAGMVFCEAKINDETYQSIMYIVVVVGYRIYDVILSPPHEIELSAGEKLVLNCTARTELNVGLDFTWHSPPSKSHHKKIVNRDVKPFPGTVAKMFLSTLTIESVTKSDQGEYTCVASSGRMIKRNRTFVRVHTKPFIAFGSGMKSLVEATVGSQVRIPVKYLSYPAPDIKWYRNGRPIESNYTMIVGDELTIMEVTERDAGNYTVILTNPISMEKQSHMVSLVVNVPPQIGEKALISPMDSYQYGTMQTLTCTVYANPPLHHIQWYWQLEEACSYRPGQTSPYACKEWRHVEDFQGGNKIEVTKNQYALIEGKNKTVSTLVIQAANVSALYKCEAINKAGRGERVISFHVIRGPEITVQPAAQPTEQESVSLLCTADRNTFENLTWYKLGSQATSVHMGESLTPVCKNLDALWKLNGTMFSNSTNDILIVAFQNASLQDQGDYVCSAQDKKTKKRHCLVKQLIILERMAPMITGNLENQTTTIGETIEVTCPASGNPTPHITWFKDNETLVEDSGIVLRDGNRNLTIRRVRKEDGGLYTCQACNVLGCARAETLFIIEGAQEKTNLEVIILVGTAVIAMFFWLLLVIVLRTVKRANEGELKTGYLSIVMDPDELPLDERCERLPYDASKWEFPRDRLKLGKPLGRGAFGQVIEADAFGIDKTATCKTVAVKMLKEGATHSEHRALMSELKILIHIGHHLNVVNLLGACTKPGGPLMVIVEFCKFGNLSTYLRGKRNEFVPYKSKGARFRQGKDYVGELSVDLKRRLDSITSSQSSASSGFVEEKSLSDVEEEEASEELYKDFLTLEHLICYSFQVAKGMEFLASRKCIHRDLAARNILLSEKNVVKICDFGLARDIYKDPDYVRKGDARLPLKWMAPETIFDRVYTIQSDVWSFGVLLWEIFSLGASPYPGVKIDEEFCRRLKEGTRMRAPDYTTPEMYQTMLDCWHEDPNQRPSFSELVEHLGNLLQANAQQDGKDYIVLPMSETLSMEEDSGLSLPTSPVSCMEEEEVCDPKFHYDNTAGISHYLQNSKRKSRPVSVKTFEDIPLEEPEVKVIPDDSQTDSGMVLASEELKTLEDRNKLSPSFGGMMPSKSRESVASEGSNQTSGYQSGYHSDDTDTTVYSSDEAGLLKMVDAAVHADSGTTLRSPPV
Measured Parameter: IC50 (nM)

Sample answers from the record:
Nc1c(-c2nc3ccccc3[nH]2)c(=O)[nH]c2ccccc12 :: 25
CN1CCN(c2ccc3[nH]c(-c4c(O)nc5cccnc5c4N)nc3c2)CC1 :: 33
Nc1c(-c2nc3cc(N4CCOCC4)ccc3[nH]2)c(O)nc2ccncc12 :: 57
Nc1c2ncnc-2[nH]c(O)c1-c1nc2ccccc2[nH]1 :: 552
Nc1c(-c2nc3cccnc3[nH]2)c(=O)[nH]c2ccccc12 :: 16
Nc1c(-c2nc3cc(N4CCOCC4)ccc3[nH]2)c(=O)[nH]c2ccccc12 :: 4
CN1CCN(c2ccc3[nH]c(-c4c(O)nc5cnccc5c4N)nc3c2)CC1 :: 1
Nc1c(-c2nc3cccnc3[nH]2)c(=O)[nH]c2cnccc12 :: 12

P. Nc1c(-c2nc3ccccc3[nH]2)c(O)nc2cnccc12
Q. Nc1c(-c2nc3ccc(N4CCOCC4)nc3[nH]2)c(=O)[nH]c2ccccc12
R. Nc1c(-c2nc3cc(N4CCOCC4)ccc3[nH]2)c(O)nc2cnccc12
Query block: Arrange the 3 compounds by rising IC50, starting with the smallest. Your answer should be the labels, listed in the requested order.
Result block: R, P, Q

====

# Target Desc: UniProt:P05622
Measured Parameter: IC50 (nM)
Output spec: scalar in nM, unitless text.

Sample answers from the record:
CN1CCN(c2ccc3[nH]c(-c4c(O)nc5cccnc5c4N)nc3c2)CC1 :: 55
CN1CCN(c2ccc3[nH]c(-c4c(O)nc5cnccc5c4N)nc3c2)CC1 :: 43

Would you kindly look at the next entry?
Query block: Look at this compound and give its reported IC50. Nc1c(-c2nc3cc(N4CCOCC4)ccc3[nH]2)c(O)nc2ccncc12
Result block: 18
